- Tested on: PPARg:RXRa 30nM:10nM, anti-RXR (NR concentration 30 nM, RXRa partner concentration 10 nM)
- Assay text: PBM binding z-score (relative to random genomic background probes); higher = stronger binding; sequences stand for … in GC…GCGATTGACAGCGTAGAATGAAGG
Quick reference for PBM binding z-score among some sequences
Respond numerically, and do not add a unit to the figure.

Please review the entries below; each comes with its answer.
{"Sequence input": "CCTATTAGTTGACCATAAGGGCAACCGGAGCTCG", "PBM binding z-score": -0.154}
{"Sequence input": "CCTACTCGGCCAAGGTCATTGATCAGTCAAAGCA", "PBM binding z-score": 0.335}
{"Sequence input": "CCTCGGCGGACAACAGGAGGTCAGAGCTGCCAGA", "PBM binding z-score": -0.988}
{"Sequence input": "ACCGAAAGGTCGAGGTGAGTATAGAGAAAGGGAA", "PBM binding z-score": 1.22}
{"Sequence input": "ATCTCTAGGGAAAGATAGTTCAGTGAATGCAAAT", "PBM binding z-score": 0.232}

Switching to the query record.
Which PBM binding z-score value is on record for `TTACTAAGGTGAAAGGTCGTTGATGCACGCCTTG` ?
8.09

---

- Tested on: LXRa homodimer (NR concentration 270 nM)
- Assay text: PBM binding z-score (relative to random genomic background probes); higher = stronger binding; sequences stand for … in GC…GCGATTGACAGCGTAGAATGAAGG
Observable: PBM binding z-score
Respond numerically, and do not add a unit to the figure.

{"Sequence input": "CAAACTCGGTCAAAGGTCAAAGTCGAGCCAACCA", "Experimental system": "LXRa homodimer (NR concentration 270 nM)", "PBM binding z-score": 6.36}

Switching to the query record.
Which PBM binding z-score value is on record for `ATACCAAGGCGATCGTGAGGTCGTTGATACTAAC` ?
0.46

---

Quick reference for PBM binding z-score among some sequences
- System: LXRa homodimer (NR concentration 270 nM)
- Assay text: PBM binding z-score (relative to random genomic background probes); higher = stronger binding; sequences stand for … in GC…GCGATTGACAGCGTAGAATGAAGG
Respond numerically, and do not add a unit to the figure.

{"Sequence input": "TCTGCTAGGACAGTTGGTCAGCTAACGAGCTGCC", "PBM binding z-score": -0.541}

Which PBM binding z-score value is on record for `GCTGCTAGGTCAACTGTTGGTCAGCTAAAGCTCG` ?
0.182

Which PBM binding z-score value is on record for `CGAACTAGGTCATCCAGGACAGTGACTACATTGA` ?
0.428

Which PBM binding z-score value is on record for `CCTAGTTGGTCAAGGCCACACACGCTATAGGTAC` ?
0.477

Which PBM binding z-score value is on record for `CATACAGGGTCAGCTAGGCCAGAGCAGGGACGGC` ?
-0.271

Which PBM binding z-score value is on record for `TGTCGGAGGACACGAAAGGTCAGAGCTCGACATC` ?
2.69

Which PBM binding z-score value is on record for `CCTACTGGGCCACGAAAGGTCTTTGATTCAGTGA` ?
-0.487

Which PBM binding z-score value is on record for `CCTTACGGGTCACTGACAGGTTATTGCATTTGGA` ?
0.625

Which PBM binding z-score value is on record for `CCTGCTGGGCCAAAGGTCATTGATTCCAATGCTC` ?
3.92

Which PBM binding z-score value is on record for `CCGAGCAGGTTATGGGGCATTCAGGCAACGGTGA` ?
-0.511

Which PBM binding z-score value is on record for `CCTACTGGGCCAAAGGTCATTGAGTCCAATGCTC` ?
3.87

Which PBM binding z-score value is on record for `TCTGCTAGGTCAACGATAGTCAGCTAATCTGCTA` ?
-0.23

Which PBM binding z-score value is on record for `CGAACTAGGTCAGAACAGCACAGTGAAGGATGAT` ?
-0.229
